Sourced from ChEMBL document CHEMBL5244201

study-target: Albumin (Mus musculus, UniProt P07724)
Sequence (P07724 whole entry): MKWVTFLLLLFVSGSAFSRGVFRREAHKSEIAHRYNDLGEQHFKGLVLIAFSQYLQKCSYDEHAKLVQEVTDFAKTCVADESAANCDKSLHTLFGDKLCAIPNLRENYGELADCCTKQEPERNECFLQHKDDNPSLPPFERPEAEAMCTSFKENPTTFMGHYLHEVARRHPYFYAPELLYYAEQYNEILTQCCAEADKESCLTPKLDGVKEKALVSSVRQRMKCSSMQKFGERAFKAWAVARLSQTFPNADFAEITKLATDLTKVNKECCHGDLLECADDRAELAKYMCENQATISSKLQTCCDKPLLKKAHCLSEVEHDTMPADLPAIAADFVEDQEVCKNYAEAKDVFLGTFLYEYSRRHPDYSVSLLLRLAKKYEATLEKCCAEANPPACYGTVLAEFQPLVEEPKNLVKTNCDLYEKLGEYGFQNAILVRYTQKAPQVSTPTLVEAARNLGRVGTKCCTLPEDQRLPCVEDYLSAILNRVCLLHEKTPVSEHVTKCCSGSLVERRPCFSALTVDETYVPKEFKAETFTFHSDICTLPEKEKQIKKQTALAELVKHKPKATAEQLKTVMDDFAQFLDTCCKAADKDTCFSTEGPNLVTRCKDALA
method-description: Binding affinity to mouse albumin assessed as dissociation constant by fluorescence polarization assay
property-name: Kd

Briefly, Kd measured for "O=C(CCCc1ccc(I)cc1)NCCCC[C@@H](NC(=O)c1ccc(-c2c3ccc(=O)cc-3oc3cc(O)ccc23)c(C(=O)O)c1)C(=O)O" : 0.118 µM

###

study-target: Albumin (Mus musculus, UniProt P07724)
method-description: Binding affinity to mouse albumin
property-name: pKd
Reminder that pKd means the negative base-10 logarithm of the concentration expressed in mol/L.

For O=C(CCCc1ccc(I)cc1)NCCCCC(NC(=O)c1ccc2c(c1)C(=O)OC21c2ccc(O)cc2Oc2cc(O)ccc21)C(=O)O (stereo unspecified) the compound record lists pKd as 5.44

###

study-target: Albumin (Homo sapiens)
method-description: Binding affinity to human albumin
property-name: pKd
Friendly reminder that pKd comes from taking -log10 of the concentration in mol/L.

For record O=C(CCCc1ccc(I)cc1)NCCCCC(NC(=O)c1ccc2c(c1)C(=O)OC21c2ccc(O)cc2Oc2cc(O)ccc21)C(=O)O (stereo unspecified) the listed pKd is 5.49

###

study-target: Albumin (Homo sapiens, UniProt P02768)
Sequence (P02768 whole entry): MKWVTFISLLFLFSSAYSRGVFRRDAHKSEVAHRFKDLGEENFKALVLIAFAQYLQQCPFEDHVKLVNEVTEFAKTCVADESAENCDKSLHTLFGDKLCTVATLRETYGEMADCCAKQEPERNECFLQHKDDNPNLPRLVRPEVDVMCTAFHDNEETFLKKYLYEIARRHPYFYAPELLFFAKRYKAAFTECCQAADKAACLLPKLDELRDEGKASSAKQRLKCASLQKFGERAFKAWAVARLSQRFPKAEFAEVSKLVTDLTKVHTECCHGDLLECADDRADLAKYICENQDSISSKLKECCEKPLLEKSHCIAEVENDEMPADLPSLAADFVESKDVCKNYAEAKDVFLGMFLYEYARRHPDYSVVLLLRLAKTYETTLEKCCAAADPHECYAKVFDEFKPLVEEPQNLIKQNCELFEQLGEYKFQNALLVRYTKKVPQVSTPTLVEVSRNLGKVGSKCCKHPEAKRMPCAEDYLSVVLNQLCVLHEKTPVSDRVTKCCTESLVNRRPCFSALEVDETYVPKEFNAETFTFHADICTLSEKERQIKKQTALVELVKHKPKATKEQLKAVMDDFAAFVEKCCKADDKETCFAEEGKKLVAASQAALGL
method-description: Binding affinity to human albumin assessed as dissociation constant by ITC method
property-name: pKd
In textbook form, pKd equals minus log to base ten of the concentration in mol/L.

pKd value, target or system Albumin (Homo sapiens, UniProt P02768), for "O=C(CCCc1ccc(I)cc1)NCCCC[C@@H](NC(=O)c1ccc(-c2c3ccc(=O)cc-3oc3cc(O)ccc23)c(C(=O)O)c1)C(=O)O" : 6.48

###

study-target: Albumin (Homo sapiens, UniProt P02768)
method-description: Binding affinity to human albumin assessed as dissociation constant
property-name: Kd (µM)
Expressed in µM, but write only the number.

// sample "Ac-WWEQDRDWDFDVFGGGTP-NH2" , its Kd was 0.015

###

study-target: Albumin (Homo sapiens)
method-description: Binding affinity to human albumin assessed as dissociation constant by fluorescence polarization assay
property-name: Kd (nM)
I only need the number, in nM, no unit after it.

Entry "O=C(CCCc1ccc(I)cc1)NCCCC[C@@H](NC(=O)c1ccc(-c2c3ccc(=O)cc-3oc3cc(O)ccc23)c(C(=O)O)c1)C(=O)O" ; Kd = 108
